target: human BRD4 bromodomain II (Homo sapiens, UniProt O60885); construct: human BRD4 bromodomain II [based on Genbank NM_058243, residues 349-460]; host or cells: E. coli; experiment: Bromodomain binding assay (AlphaScreen), BRD4 BDII; conditions: AlphaScreen assay, Table C2; read-out: BRD4 BDII IC50
pIC50: −log10 of the molar value.
value-kind: pIC50

chemical-string	reported-result
CC(=O)Nc1ccc(-c2cccc(-c3cccc(N4CCN[C@@H](C)C4)c3)c2O)cc1F	7.00 to 8.00
O=c1[nH]c2ccc(-c3cc(F)cc(-c4ccnc(N5CCNCC5)c4)c3O)cc2[nH]1	< 7.00
O=C1NCCCN1c1ccc(-c2cc(F)cc(-c3ccnc(N4CCNCC4)c3)c2O)cc1F	7.00 to 8.00
Cc1ccc(-c2cc(F)cc(-c3ccc(-n4ccn(C)c4=O)c(Cl)c3)c2O)cc1N1CC(C)(O)C1	8.00 to 9.00

* * *

Catalogue of compounds with associated pIC50
target: human BRD4 bromodomain II (Homo sapiens); construct: human BRD4 bromodomain II [based on Genbank NM_058243, residues 349-460]; host or cells: E. coli; test: Bromodomain binding assay (AlphaScreen), BRD4 BDII; details: BRD4 BDII AlphaScreen assay; read-out: BRD4 BD2 IC50
pIC50: −log10 of the molar value.

compound	study-target	pIC50
CC(C)N1CCC12CCN(c1cc(-c3cc(F)cc(-c4ccc(-n5ccn(C)c5=O)c(Cl)c4)c3O)cnc1N(C)C)C2 (stereo not shown)	human BRD4 bromodomain II (Homo sapiens)	8.00 to 9.00
Cn1ccn(-c2c(OC3CC3)ccc(-c3cc(F)cc(-c4cccc(N5CCN(C(C)(C)C)CC5)c4)c3O)c2Cl)c1=O	human BRD4 bromodomain II (Homo sapiens)	< 7.00
Cc1cc(-c2cc(F)cc(-c3cccc(N4CCN(C(C)(C)C)CC4)c3)c2O)ccc1-n1ccn(C)c1=O	human BRD4 bromodomain II (Homo sapiens)	8.00 to 9.00
CNc1ncc(-c2cc(F)cc(-c3ccc(-n4ccn(C)c4=O)c(Cl)c3)c2O)cc1N1CCN(C(C)(C)C)CC1	human BRD4 bromodomain II (Homo sapiens)	9.00 to 11.00
CNc1ncc(-c2cc(F)cc(-c3ccc(-n4ccn(C)c4=O)c(Cl)c3)c2O)cc1N1CCC2(CCN2C(C)C)C1 (stereo not shown)	human BRD4 bromodomain II (Homo sapiens)	8.00 to 9.00
Cc1cc(-c2ccc(-n3ccn(C)c3=O)c(Cl)c2)c(O)c(-c2cnc(N)c(N3CCC4(CCCN4C(C)C)C3)c2)n1 (stereo not shown)	human BRD4 bromodomain II (Homo sapiens)	9.00 to 11.00
Cc1cc(-c2ccc(-n3ccn(C)c3=O)c(Cl)c2)c(O)c(-c2ccnc(N3CCC4(CCC(=O)N4)C3)c2)n1 (stereo not shown)	human BRD4 bromodomain II (Homo sapiens)	9.00 to 11.00

* * *

test system: human SKM-1 acute myeloid leukemia cells; assay: SKM-1 antiproliferation cell-based assay (ATPlite); settings: Homo sapiens, SKM-1, 96 h, SKM-1 antiproliferation assay, 4 days, Table C2

molecule	GI50
CC(=O)Nc1ccc(-c2cccc(-c3ccnc(N4CCC(O)C4)c3)c2O)cc1F (stereo not shown)	300 to 3000 nM
C[C@@H]1CN(c2cc(-c3cc(F)cc(-c4ccc(-n5ccn(C)c5=O)c(Cl)c4)c3O)cc(=O)n2C)CCN1	0.3 to 30 nM
C[C@@H]1CN(c2cc(-c3cc(F)cc(-c4ccc(-n5ccn(C)c5=O)c(Cl)c4)c3O)cn3ncnc23)CCN1	0.3 to 30 nM
Cn1cc(-c2cc(F)cc(-c3ccc(-n4ccn(C)c4=O)c(Cl)c3)c2O)cc(N2CCC[C@H](N)C2)c1=O	30 to 300 nM
Cc1cc(-c2ccnc(N3CCNCC3)c2)c(O)c(-c2ccc(-n3ccn(C)c3=O)c(Cl)c2)c1	0.3 to 30 nM
CN1CCN(c2ccc(-c3cc(F)cc(-c4ccc(CO)c(N5CCNCC5)c4)c3O)cc2Cl)C1=O	30 to 300 nM
CN1CCN(c2c(F)cc(-c3cc(F)cc(-c4ccnc(N5CCNCC5)c4)c3O)cc2Cl)C1=O	300 to 3000 nM

* * *

# key: entry, value: pIC50
target: human BRD4 bromodomain II (Homo sapiens); construct: human BRD4 bromodomain II [based on Genbank NM_058243, residues 349-460]; host or cells: E. coli; experiment: Bromodomain binding assay (AlphaScreen), BRD4 BDII; settings: AlphaScreen assay, Table C2; read-out: BRD4 BDII IC50
pIC50: −log10 of the molar value.

molecule	pIC50
CC(C)C(=O)Nc1cc(-c2cc(F)cc(-c3ccc(-n4ccn(C)c4=O)c(Cl)c3)c2O)cc(N2CC[C@H](N)C2)n1	8.00 to 9.00
CSc1ncc(-c2cc(F)cc(-c3ccc(-n4ccn(C)c4=O)c(Cl)c3)c2O)cc1N1CCN(C(C)(C)C)CC1	8.00 to 9.00
Cn1ccn(-c2ccc(-c3cc(F)cc(-c4ccnc(N5CCC6(CCC(=O)N6)C5)c4)c3O)cc2Cl)c1=O (stereo not shown)	9.00 to 11.00
C[C@@H]1CN(c2cncc(-c3cc(F)cc(-c4ccc(-n5ccn(C)c5=O)c(Cl)c4)c3O)c2)CCN1C	9.00 to 11.00
CC(=O)Nc1ccc(-c2cccc(-c3cc(OCCN)nc(N4CCNCC4)c3)c2O)cc1F	7.00 to 8.00
CC1=CCN(c2ccc(-c3cccc(-c4ccnc(N5CCNCC5)c4)c3O)cc2Cl)C1=O	8.00 to 9.00
CN1CCN(c2ccc(-c3cccc(-c4ccnc(N5CCCC(N)C5)c4)c3O)cc2Cl)C1=O (stereo not shown)	8.00 to 9.00

* * *

test system: human SKM-1 acute myeloid leukemia cells; experiment: SKM-1 antiproliferation cell-based assay (ATPlite); conditions: Homo sapiens, SKM-1, 96 h, SKM-1 antiproliferation assay, 4 days, Table C2
Entries annotated with measured GI50

compound	GI50
CC(=O)Nc1ccc(-c2cccc(-c3ccnc(C#CCN)c3)c2O)cc1F [Example 296]	300 to 3000 nM
Cn1ccn(-c2ccc(-c3cc(F)cc(-c4ccnc(N5CCN6C(=O)OC[C@@H]6C5)c4)c3O)cc2Cl)c1=O [Example 560]	30 to 300 nM
COc1ncc(-c2cc(F)cc(-c3ccc(-n4ccn(C)c4=O)c(Cl)c3)c2O)cc1N1CC(C)(O)C1 [Example 834]	0.3 to 30 nM
CN1CCN(c2ccc(-c3cccc(-c4cncc(N5CCCC(N)C5)c4)c3O)cc2Cl)C1=O (stereo not drawn) [Example 325]	30 to 300 nM
Cn1ccn(-c2ccc(-c3cc(F)cc(-c4ccnc(-c5cccnc5)c4)c3O)cc2Cl)c1=O [Example 480]	300 to 3000 nM
C[C@@H]1CN(c2cc(-c3cccc(-c4ccc(N5CCN(C)C5=O)c(F)c4)c3O)ccn2)CCN1 [Example 289]	30 to 300 nM
CN1CCN(c2ccc(-c3cc(F)cc(-c4cc(N5CCNCC5)c5[nH]ncc5c4)c3O)cc2Cl)C1=O [Example 424]	30 to 300 nM
CN[C@H]1CCN(c2cc(-c3cc(F)cc(-c4ccc(-n5ccn(C)c5=O)c(Cl)c4)c3O)ccn2)C1 [Example 429]	0.3 to 30 nM
CN1CCN(c2ccc(-c3cccc(-c4ccc(CN)c(N5CCNCC5)c4)c3O)cc2Cl)C1=O [Example 319]	300 to 3000 nM
CC1CC(=O)N(c2ccc(-c3cccc(-c4ccnc(N5CCNCC5)c4)c3O)cc2Cl)C1 (stereo not drawn) [Example 340]	300 to 3000 nM
Cn1ccn(-c2ccc(-c3cc(F)cc(-c4ccnc(N5CC(N)C6(CC6)C5)c4)c3O)cc2Cl)c1=O (stereo not drawn) [Example 755]	0.3 to 30 nM
Cn1ccn(-c2ccc(-c3cc(F)cc(-c4ccnc(N5CC6(CC6)[C@@](C)(O)C5)c4)c3O)cc2Cl)c1=O [Example 816]	0.3 to 30 nM
Cn1ccn(-c2ccc(-c3cc(F)cc(-c4ccnc(N5CC[C@@](C)(N)C5)c4)c3O)cc2Cl)c1=O [Example 716]	0.3 to 30 nM
CCc1cc(-c2cccc(-c3ccc(N4CCN(C)C4=O)c(Cl)c3)c2O)cc(N2CCNCC2)n1 [Example 374]	300 to 3000 nM
Cn1ccn(-c2ccc(-c3cc(F)cc(-c4ccnc(N5CCN(C6CCOC6)CC5)c4)c3O)cc2Cl)c1=O (stereo not drawn) [Example 618]	30 to 300 nM

* * *

Below: a set of entries, each annotated with reported IC50.
biological target: human BRD4 bromodomain II (Homo sapiens, UniProt O60885); construct: human BRD4 bromodomain II [based on Genbank NM_058243, residues 349-460]; host or cells: E. coli; experiment: Bromodomain binding assay (AlphaScreen), BRD4 BDII; conditions: AlphaScreen assay, Table C2; read-out: BRD4 BDII IC50
value-kind: IC50

compound	study-target	reported-result
CC(=O)Nc1ccc(-c2cccc(-c3ccc(NC(C)=O)c(OC4CCC4)c3)c2O)cc1F [Example 45]	human BRD4 bromodomain II (Homo sapiens, UniProt O60885)	> 100 nM
Cn1cc(-c2cc(F)cc(-c3ccc(-n4ccn(C)c4=O)c(Cl)c3)c2O)cc(N2CC[C@H](N)C2)c1=O [Example 422]	human BRD4 bromodomain II (Homo sapiens, UniProt O60885)	0.01 to 1 nM
CC(=O)Nc1ccc(-c2cccc(-c3ccc(OC4CCCC4)cc3)c2O)cc1F [Example 118]	human BRD4 bromodomain II (Homo sapiens, UniProt O60885)	> 100 nM
C[C@@H]1CN(c2cc(-c3cc(Cl)cc(-c4ccc(-n5ccn(C)c5=O)c(F)c4)c3O)ccn2)CCN1 [Example 538]	human BRD4 bromodomain II (Homo sapiens, UniProt O60885)	1 to 10 nM

Origin of measurements: patent US20250179059A1
